Hello, the source for this data is a collection of fitness landscapes (doi:10.1016/j.celrep.2020.107928), in case you need it.

The variants listed here are annotated with their one-hybrid fitness for binding NBS DNA.
B1: Caulobacter ParB omega fusion; a variant is named by its letters at X, in order, B8GW30 (parent)
chain: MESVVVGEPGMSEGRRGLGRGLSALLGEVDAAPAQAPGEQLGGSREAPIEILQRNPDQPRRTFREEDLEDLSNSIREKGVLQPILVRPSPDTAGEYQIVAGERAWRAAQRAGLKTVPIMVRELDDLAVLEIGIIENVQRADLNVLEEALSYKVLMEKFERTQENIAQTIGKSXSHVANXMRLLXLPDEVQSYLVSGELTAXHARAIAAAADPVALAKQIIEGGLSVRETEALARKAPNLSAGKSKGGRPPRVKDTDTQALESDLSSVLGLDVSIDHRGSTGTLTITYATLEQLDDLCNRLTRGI

# Variants of: B1
# protocol notes: one-hybrid fitness for binding NBS DNA (the Noc-binding site; scaled: cognate 1, non-cognate 0); higher = stronger binding
# measurement setup: with NBS DNA site
The full ranking holds about 81,000 sequences; the median of “one-hybrid fitness for binding NBS DNA” is about -0.1, and the highest 2% start at about 0.36. The sample holds the highest values, similar sequences and a random draw of the others, so the mix is not that of the screen.
quantity kind: one-hybrid fitness for binding NBS DNA

RMHP: ≤ 0.2
RGRT: ≤ 0.2
RAHQ: ≤ 0.2
RKWR: 0.49
CVMI: ≤ 0.2
QKYY: ≤ 0.2
RRLT: 0.761
SIFQ: ≤ 0.2
QKRY: 0.518
DRRT: ≤ 0.2
RCHT: 0.538
KRTN: ≤ 0.2
RVGR: 0.491
KRTS: 0.448
RKGH: 0.301
PCVC: ≤ 0.2
QTRY: 0.685
RVGF: ≤ 0.2
CRIR: ≤ 0.2
QSPH: ≤ 0.2
RAHT: 0.427
RKSH: 0.211
DYHC: ≤ 0.2
PAFY: ≤ 0.2
QTYY: 0.262
VSTT: ≤ 0.2
KPTR: ≤ 0.2
QPRY: ≤ 0.2
RKGP: ≤ 0.2
RKWP: ≤ 0.2
QLDY: ≤ 0.2
QLIH: ≤ 0.2
MAQR: ≤ 0.2
NTLI: ≤ 0.2
RRQQ: 0.268
QLRY: 0.451
ANGR: ≤ 0.2
RKQM: ≤ 0.2
RMHH: ≤ 0.2
RKSR: 0.581
KRTT: 0.583
RRQM: 0.273
TSWF: ≤ 0.2
RPHT: ≤ 0.2
ITMG: ≤ 0.2
KEGR: ≤ 0.2
